FYI, the data here is from paper PMC7023391.

Experiment: In vitro transepithelial transport study across MucilAir tissues
Settings: human, pH 7.4
Parameter measured: Papp at 60 min, 10 µM

// solved cases for Papp at 60 min, 10 µM follow
Compound	Papp at 60 min, 10 µM
Nc1nc2c(ncn2COCCO)c(=O)[nH]1	4.8 nm/s
CN(Cc1cnc2nc(N)nc(N)c2n1)c1ccc(C(=O)N[C@@H](CCC(=O)O)C(=O)O)cc1 [Methotrexate, methotrexate]	3.1 nm/s

Here is another compound to look at.
Looking up C=C[C@H]1C[N@@]2CC[C@H]1C[C@@H]2[C@@H](O)c1ccnc2ccc(OC)cc12 , I found its Papp at 60 min, 10 µM recorded as 186 nm/s

----------
Recorded Papp at 60 min, 10 µM values for a group of molecules are listed next.
Test: In vitro transepithelial transport study across MDCK monolayers
Details: dog, pH 7.4
All answers are understood in ×10⁻⁶ cm/s, so give the number only.

Answered cases to consult:
Molecule	Recorded number
Nc1nc2c(ncn2COCCO)c(=O)[nH]1	0.61
CN(Cc1cnc2nc(N)nc(N)c2n1)c1ccc(C(=O)N[C@@H](CCC(=O)O)C(=O)O)cc1 [Methotrexate, methotrexate]	0.09

# evaluate next
Papp at 60 min, 10 µM recorded for this molecule, C=C[C@H]1C[N@@]2CC[C@H]1C[C@@H]2[C@@H](O)c1ccnc2ccc(OC)cc12 , is 11.6
